experiment: Microsomal stability in human liver microsomes assessed as hepatic clearance at 1 uM by LC-MS/MS analysis; type: ADME, Microsome

{"columns": ["SMILES_TEXT", "CLhep predicted at 1 µM [mL/min/kg]"],
 "data": [
  ["C[C@]12CC[C@H]3[C@@H](CCC4=CC(=O)CC[C@@]43C)[C@@H]1CC[C@@H]2O", 19.3]
]}

---

test: Inhibition of RSL3 induced ferroptosis in human HT-1080 cells assessed as cell viability incubated for 24 hrs by CellTiter-LumiTM assay; type: functional, cell-based; conditions: HT-1080, 24 h

{"columns": ["MOLECULE", "UNIT_DESCRIPTOR", "EC50"],
 "data": [
  ["COc1ccc(COc2c(OC)cccc2C2N(c3ccccc3)N=C(C(C)=O)N2c2ccc(N(C)C)cc2)cc1 (stereo not drawn)", "µM", 0.074],
  ["COC(=O)c1ccc(COc2c(OC)cccc2C2N(c3ccccc3)N=C(C(C)=O)N2c2ccc(N(C)C)cc2)cc1 (stereo not drawn)", "µM", 0.317],
  ["COc1cccc(C2N(c3ccccc3)N=C(C(C)=O)N2c2ccc(N(C)C)cc2)c1OCc1ccc(F)c(F)c1 (stereo not drawn)", "µM", 0.186]
]}

---

assay: Microsomal stability in rat liver microsomes assessed as hepatic clearance at 0.1 uM by LC-MS/MS analysis; format: ADME, Microsome
OUTCOME_MEASURE: CLhep predicted at 0.1 µM (L/h/kg)

{"columns": ["COMPOUND", "DATA_VALUE"],
 "data": [
  ["COc1cccc(C2N(c3ccccc3)N=C(C(C)=O)N2c2ccc(N(C)C)cc2)c1OCc1ccc(F)c(F)c1 (stereo unspecified)", 3.27]
]}

---

experiment: Microsomal stability in rat liver microsomes assessed as half life at 0.1 uM by LC-MS/MS analysis; assay type: ADME, Microsome; conditions: liver microsomes

{"columns": ["COMPOUND", "UNIT_DESCRIPTOR", "half-life at 0.1 µM"],
 "data": [
  ["COc1cccc(C2N(c3ccccc3)N=C(C(C)=O)N2c2ccc(N(C)C)cc2)c1OCc1ccc(F)c(F)c1 (stereo unspecified)", "min", 2.87]
]}

---

test: Microsomal stability in human liver microsomes assessed as half life at 0.1 uM by LC-MS/MS analysis; type: ADME, Microsome; settings: liver microsomes

{"columns": ["MOLECULE", "half-life at 0.1 µM"],
 "data": [
  ["COc1cccc(C2N(c3ccccc3)N=C(C(C)=O)N2c2ccc(N(C)C)cc2)c1OCc1ccc(F)c(F)c1 (stereo unspecified)", "5.74 min"]
]}

---

assay: Metabolic stability in human plasma assessed as half life at 1 uM by LC-MS/MS analysis; assay type: ADME, cell-free
// reported half-life at 1 µM for each item listed

{"columns": ["COMPOUND", "UNIT_DESCRIPTOR", "half-life at 1 µM"],
 "data": [
  ["COc1cccc(C2N(c3ccccc3)N=C(C(C)=O)N2c2ccc(N(C)C)cc2)c1OCc1ccc(F)c(F)c1 (stereo not drawn)", "h", 33.7],
  ["COc1ccc(COc2c(OC)cccc2C2N(c3ccccc3)N=C(C(C)=O)N2c2ccc(N(C)C)cc2)cc1 (stereo not drawn)", "h", 23.9],
  ["CC(C)[N+](C)(CCOC(=O)C1c2ccccc2Oc2ccccc21)C(C)C", "h", 0.465]
]}
